- Tested System: human kappa opioid receptor (hKOR) (Homo sapiens, UniProt P41145)
- Construct: expressed in transfected cells; host or cells: CHO cells
- Sequence (P41145 whole entry): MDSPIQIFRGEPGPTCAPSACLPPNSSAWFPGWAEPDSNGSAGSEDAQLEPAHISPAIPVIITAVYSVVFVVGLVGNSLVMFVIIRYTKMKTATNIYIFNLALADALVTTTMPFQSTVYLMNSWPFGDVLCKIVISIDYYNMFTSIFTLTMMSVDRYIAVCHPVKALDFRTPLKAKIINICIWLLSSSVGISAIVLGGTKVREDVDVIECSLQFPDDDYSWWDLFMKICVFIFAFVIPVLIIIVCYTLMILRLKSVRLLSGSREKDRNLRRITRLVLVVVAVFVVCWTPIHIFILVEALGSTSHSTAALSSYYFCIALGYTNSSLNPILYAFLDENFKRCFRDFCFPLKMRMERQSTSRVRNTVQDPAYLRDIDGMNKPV
- Test Description: Kappa radioligand binding assay ([3H]diprenorphine, CHO cell membranes)
- Test Parameters: Table 19; geometric mean of 2-6 determinations unless otherwise indicated (Example 3: >=7); read-out: hKOR binding assay Ki
- Procedure: Kappa and Mu Radioligand Binding Assay: Binding assays on membranes from CHO cells expressing human kappa or mu opioid receptors were performed according to standard procedures. […] Non-specific binding was determined by radioligand binding in the presence of a saturating concentration of naltrexone (10 μM). […] Membrane bound [^3H]diprenorphine levels were determined by liquid scintillation counting of the filterplates in Ecolume scintillation fluid. […]
Measure: pKi
Note on pKi: it is the negative log10 of concentration, concentration in mol/L.

q: Test system human kappa opioid receptor (hKOR) (Homo sapiens, UniProt P41145); read-out pKi; what value for COc1nn(C)cc1C1CC(F)CN1Cc1ccc(Oc2ccc(C(N)=O)cc2)cc1 (single isomer, unassigned) [Example 24] ?
a: 8.66

q: Report pKi for COc1nn(C)cc1C1CCCN1Cc1ccc(Oc2ccc(C(N)=O)cc2)c(F)c1 (single isomer, unassigned) [Example 32] tested on human kappa opioid receptor (hKOR) (Homo sapiens, UniProt P41145).
a: 8.61

q: Return pKi measured with human kappa opioid receptor (hKOR) (Homo sapiens, UniProt P41145) given this molecule: Cn1ccc([C@@H]2CCCN2Cc2ccc(Oc3ccc(C(N)=O)cc3F)cc2)n1 [Example 19]
a: 9.00

q: Hello, I am looking for reported pKi with human kappa opioid receptor (hKOR) (Homo sapiens, UniProt P41145) for COc1nn(C)cc1C1CC(C)CN1Cc1ccc(Oc2ccc(C(N)=O)cc2F)cc1 (single isomer, unassigned) [Example 29] . Could you help?
a: 9.30
